# TESTED TARGET: JAK3 (Homo sapiens, UniProt P52333)
# Construct: made in house; host or cells: SF9 insect cells (baculovirus)
# Sequence (P52333 783-1124): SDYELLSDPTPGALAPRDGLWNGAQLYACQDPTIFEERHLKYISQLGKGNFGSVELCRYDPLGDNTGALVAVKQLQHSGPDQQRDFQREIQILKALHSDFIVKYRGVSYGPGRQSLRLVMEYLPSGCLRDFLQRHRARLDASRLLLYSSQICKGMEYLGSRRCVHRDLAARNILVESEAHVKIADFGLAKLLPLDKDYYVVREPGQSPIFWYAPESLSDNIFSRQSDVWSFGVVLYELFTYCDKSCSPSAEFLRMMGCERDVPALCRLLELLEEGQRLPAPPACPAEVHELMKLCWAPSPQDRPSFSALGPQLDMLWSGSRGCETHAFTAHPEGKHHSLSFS
# MEASUREMENT DESCRIPTION: JAK3 inhibition (Table 4)
# Format: biochemical
# RECORDED CONDITIONS: read-out: JAK3 Ki
Recorded Ki, one value per entry.

// solved cases for Ki follow
> print(dat)
                                   compound  metric   result
1     CC(C)(O)c1nc2cnc3[nH]ccc3c2n1C1CCNCC1      Ki  2550 nM
2  COCCN1CC[C@@H](n2c([C@@H](C)O)nc3cnc4[nH]ccc4c32)C(F)(F)C1      Ki  4.65 nM
3  N#CCCN1CCC(n2c(CC3CC3)nc3cnc4[nH]ccc4c32)CC1      Ki  21.4 nM
4  Cc1nc2cnc3[nH]ccc3c2n1[C@H]1CC[C@H](NC(C)CC#N)CC1 (stereo partly shown)      Ki  17.1 nM
5     OCCc1nc2cnc3[nH]ccc3c2n1[C@@H]1CCCOC1      Ki   305 nM

Answer with the recorded Ki for the compound listed here: `N#CCCN1CCC(n2c(COC3CCCC3)nc3cnc4[nH]ccc4c32)CC1`
169 nM

Look up and report measured Ki for this entry: `CC(=O)NCc1nc2cnc3[nH]ccc3c2n1C1CCNCC1`
3010 nM

Given the compound `Cc1nc2cnc3[nH]ccc3c2n1[C@H]1CC[C@@H](NC(=O)CC(F)(F)F)C1` , write its reported Ki.
9.13 nM

Answer with the recorded Ki for the compound listed here: Cc1nc2cnc3[nH]ccc3c2n1C1CCC(NCCC#N)C1 (racemic)
14 nM

Assign Ki to the following record: `O=C(c1ccccc1)N1CCC[C@@H](n2cnc3cnc4[nH]ccc4c32)C1`
373 nM

---

Property: Ki; scope: individual compounds
# TESTED TARGET: JAK2 (Homo sapiens)
# Construct: made in house; host or cells: SF9 insect cells (baculovirus)
# MEASUREMENT DESCRIPTION: JAK2 inhibition (Table 4)
# Assay type: biochemical
# RECORDED CONDITIONS: read-out: JAK2 Ki
Counter-ions that a name gives are not always drawn.
All answers are understood in nM, so give the number only.

Look over these answered cases.
> print(dat)
                                   compound        tested.target  numeric.result
1  COCCNC1CCC(n2nnc3cnc4[nH]ccc4c32)C1 (racemic) [Example 618, hydrochloride]  JAK2 (Homo sapiens)             446
2  CCC(COC)n1c(C(C)O)nc2cnc3[nH]ccc3c21 (single isomer, unassigned) [Example 182]  JAK2 (Homo sapiens)             435
3  O=C(N1CCC[C@@H](n2cnc3cnc4[nH]ccc4c32)C1)C1(C(F)(F)F)CC1 [Example 228]  JAK2 (Homo sapiens)            5.99

Name the value of Ki reported for CC(C)(C)OC(=O)N[C@@H]1CC[C@@H](n2nnc3cnc4[nH]ccc4c32)C1 [Example 727] when tested on JAK2 (Homo sapiens).
7.73

# return Ki of C[C@@H](O)c1nc2cnc3[nH]ccc3c2n1C1CCN(Cc2cnco2)CC1 [Example 898] (system: JAK2 (Homo sapiens))
54.4

Give measured Ki for c1cncc(-c2nc3cnc4[nH]ccc4c3n2C2CCNCC2)c1 [Example 153] (JAK2 (Homo sapiens)).
587

Specify Ki for C[C@@H](O)c1nc2cnc3[nH]ccc3c2n1C1CCN(Cc2nccn2C)CC1 [Example 826] , system JAK2 (Homo sapiens).
419

---

# TESTED TARGET: JAK3 (Homo sapiens)
# Construct: made in house; host or cells: SF9 insect cells (baculovirus)
# MEASUREMENT DESCRIPTION: JAK3 inhibition (Table 4)
# Format: biochemical
# RECORDED CONDITIONS: read-out: JAK3 Ki
Hi! Just check whether Ki is below 0.06 µM. Below gives true (1), equal or above gives false (0).

> print(dat)
                                   compound  assigned.category
1  CC(C)(C#N)c1nc2cnc3[nH]ccc3c2n1C1CCN(Cc2cnccn2)CC1           true (1)

Lab note: Ki threshold 0.06 µM. Does this compound come in strictly under it? `Cc1nc2cnc3[nH]ccc3c2n1C1CCS(=O)(=O)CC1`
false (0)

---

Reported values of pKi for individual entries
# TESTED TARGET: JAK1 (Homo sapiens, UniProt P23458)
# Construct: made in house; host or cells: SF9 insect cells (baculovirus)
# Sequence (P23458 852-1154): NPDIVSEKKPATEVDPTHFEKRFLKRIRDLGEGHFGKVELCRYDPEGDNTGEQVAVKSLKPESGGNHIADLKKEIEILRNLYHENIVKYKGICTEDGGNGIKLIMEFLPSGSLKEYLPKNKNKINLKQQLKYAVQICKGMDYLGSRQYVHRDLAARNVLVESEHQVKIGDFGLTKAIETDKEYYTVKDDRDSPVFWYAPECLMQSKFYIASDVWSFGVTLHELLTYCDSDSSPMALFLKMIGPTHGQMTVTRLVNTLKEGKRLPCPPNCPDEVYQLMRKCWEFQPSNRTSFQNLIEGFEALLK
# MEASUREMENT DESCRIPTION: JAK1 inhibition (Table 4)
# Assay type: biochemical
# RECORDED CONDITIONS: read-out: JAK1 Ki
Worth noting: pKi values are minus log10 of concentrations stated in mol/L.

Sample answers from the record:
> print(dat)
                                   molecule                        tested.target  numeric.result
1  CC(C)CN[C@H]1CC[C@H](n2cnc3cnc4[nH]ccc4c32)CC1 [Example 569]  JAK1 (Homo sapiens, UniProt P23458)            7.90
2  C[C@@H](O)c1nc2cnc3[nH]ccc3c2n1C1CCC(CCS(C)(=O)=O)CC1 (some centres unmarked) [Example 778]  JAK1 (Homo sapiens, UniProt P23458)            9.19

Respond only with pKi recorded for CCC(C)S(=O)(=O)NCCc1nc2cnc3[nH]ccc3c2n1C1CCN(CCC#N)CC1 (racemic) [Example 369]
8.56

Tell me measured pKi for CC(=O)N1CCC(c2nc3cnc4[nH]ccc4c3n2C2CCN(C(C)CC#N)CC2)C1 (racemic) [Example 397] please.
7.52

---

# TESTED TARGET: JAK2 (Homo sapiens, UniProt O60674)
# Construct: made in house; host or cells: SF9 insect cells (baculovirus)
# Sequence (O60674 812-1132): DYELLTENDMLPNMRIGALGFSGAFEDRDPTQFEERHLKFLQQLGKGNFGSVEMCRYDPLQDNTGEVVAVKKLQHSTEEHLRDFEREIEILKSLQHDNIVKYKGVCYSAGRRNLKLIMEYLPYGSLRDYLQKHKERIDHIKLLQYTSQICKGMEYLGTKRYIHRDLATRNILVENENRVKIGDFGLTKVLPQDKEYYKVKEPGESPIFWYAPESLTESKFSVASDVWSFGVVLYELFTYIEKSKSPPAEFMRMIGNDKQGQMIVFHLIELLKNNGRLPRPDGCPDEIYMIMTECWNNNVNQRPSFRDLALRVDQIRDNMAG
# MEASUREMENT DESCRIPTION: JAK2 inhibition (Table 4)
# Assay type: biochemical
# RECORDED CONDITIONS: read-out: JAK2 Ki
# Ki listing for each entry below
Express the result in nM but write the number alone.

> print(dat)
                                   molecule  metric  value.units  numeric.result
1  CC(C)(C)OC(=O)N[C@H]1CC[C@H](n2cnc3cnc4[nH]ccc4c32)CC1      Ki           nM              20
2  CCOC(=O)NCCc1nc2cnc3[nH]ccc3c2n1C1CCN(CC)CC1(F)F (centres unmarked) [Example 678]      Ki           nM            31.8
3  C[C@H](O)c1nc2cnc3[nH]ccc3c2n1[C@@H]1CCCN(C(=O)CC#N)C1      Ki           nM             307
4  CCC(COC)n1c(C)nc2cnc3[nH]ccc3c21 (racemic)      Ki           nM             233

For the molecule `COCC(=O)N1CCC(n2c(Cc3conc3C)nc3cnc4[nH]ccc4c32)CC1` , give its reported Ki.
1310

Let me know recorded Ki for Cc1nc2cnc3[nH]ccc3c2n1C1CCN(CC(O)CO)CC1 (centres unmarked) , thanks.
25.6

Kindly indicate its recorded Ki. Item: CC(=O)N1CCC(c2nc3cnc4[nH]ccc4c3n2C2CCN(C(C)CC#N)CC2)C1 (racemic)
62.4

Quick one: give measured Ki for Cc1nc2cnc3[nH]ccc3c2n1C1CCC(NC(=O)CC(F)(F)F)C1 (racemic)
7.24

---

# TESTED TARGET: TYK2 (Homo sapiens, UniProt P29597)
# Construct: made in house; host or cells: SF9 insect cells (baculovirus)
# Sequence (P29597 873-1187): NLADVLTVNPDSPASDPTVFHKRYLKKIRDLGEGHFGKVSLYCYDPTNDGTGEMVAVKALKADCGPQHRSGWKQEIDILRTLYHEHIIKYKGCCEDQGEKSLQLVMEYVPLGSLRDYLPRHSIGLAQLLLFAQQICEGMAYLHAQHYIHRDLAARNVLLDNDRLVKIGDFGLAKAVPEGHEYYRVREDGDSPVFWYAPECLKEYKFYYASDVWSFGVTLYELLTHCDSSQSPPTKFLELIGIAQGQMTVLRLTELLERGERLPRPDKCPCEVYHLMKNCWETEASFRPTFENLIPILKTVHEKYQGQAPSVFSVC
# MEASUREMENT DESCRIPTION: TYK2 inhibition (Table 4)
# Format: biochemical
Ki for assorted compounds
Your answer should be a plain number; it is taken to be in nM.

Reference set, count: 2
> print(dat)
                                   compound  numeric.result
1  CC1(C)CC1C(=O)N1CCC[C@@H](n2cnc3cnc4[nH]ccc4c32)C1 (stereo partly drawn) [Example 226]            82.1
2  CCCC1(n2c(C)nc3cnc4[nH]ccc4c32)CC1 [Example 423]             112

Provide the reported Ki (system: TYK2 (Homo sapiens, UniProt P29597)) for C#CCCN1CCC(n2c([C@@H](C)O)nc3cnc4[nH]ccc4c32)CC1 [Example 871]
1170

Return reported Ki for target or system TYK2 (Homo sapiens, UniProt P29597), item CC1CNCCC1n1cnc2cnc3[nH]ccc3c21 (racemic) [Example 312] .
1050

Supply Ki measured with TYK2 (Homo sapiens, UniProt P29597) for CCN1CCC(n2c(CCNC(=O)OC)nc3cnc4[nH]ccc4c32)C(F)(F)C1 (stereo not drawn) [Example 908] .
282

Check TYK2 (Homo sapiens, UniProt P29597) data and give Ki for c1cc(N2CCC(n3cnc4cnc5[nH]ccc5c43)CC2)ncn1 [Example 65] .
107

# assay system TYK2 (Homo sapiens, UniProt P29597): give Ki of COCCC(=O)NCCc1nc2cnc3[nH]ccc3c2n1C1CCN(CCC#N)CC1 [Example 371]
178

# assay system TYK2 (Homo sapiens, UniProt P29597): give Ki of O=C([C@@H]1COCCN1)N1CCC(n2cnc3cnc4[nH]ccc4c32)CC1 [Example 455]
262

Write down the reported Ki (system: TYK2 (Homo sapiens, UniProt P29597)) of Cc1cc(CN2CCC(n3c(C(C)O)nc4cnc5[nH]ccc5c43)C(F)C2)no1 (stereo not drawn) [Example 911]
180

Retrieve Ki on TYK2 (Homo sapiens, UniProt P29597); query Fc1cccc(CN2CCC(n3cnc4cnc5[nH]ccc5c43)CC2)c1 [Example 67]
23.6

With TYK2 (Homo sapiens, UniProt P29597) as the test system, provide measured Ki for this compound: OCc1nc2cnc3[nH]ccc3c2n1C1CCCCC1 [Example 675]
1.78

Enter measured Ki, system TYK2 (Homo sapiens, UniProt P29597), for the compound shown: COCCC(=O)N[C@H]1CC[C@H](n2cnc3cnc4[nH]ccc4c32)CC1 [Example 573]
91.5

Provide measured Ki on TYK2 (Homo sapiens, UniProt P29597) for N#CCC(=O)N1CCCC(n2c(CC3CC3)nc3cnc4[nH]ccc4c32)C1 (stereo not drawn) [Example 676] please.
22.1

Tell me Ki of CC(=O)NCCOC(=O)N[C@H]1CC[C@H](n2cnc3cnc4[nH]ccc4c32)CC1 [Example 599] when tested on TYK2 (Homo sapiens, UniProt P29597).
120

State Ki (TYK2 (Homo sapiens, UniProt P29597)) of c1cncc(CN2CCC(n3nnc4cnc5[nH]ccc5c43)CC2)c1 [Example 282] .
260

Under TYK2 (Homo sapiens, UniProt P29597): report Ki of c1cncc(CN[C@H]2CC[C@H](n3cnc4cnc5[nH]ccc5c43)CC2)c1 [Example 336] .
77.6

Provide Ki, tested on TYK2 (Homo sapiens, UniProt P29597), for C[C@@H](O)c1nc2cnc3[nH]ccc3c2n1C1CCN(C2COC2)CC1 [Example 832] .
493

Determine reported Ki for CC1CN(S(C)(=O)=O)CCC1n1cnc2cnc3[nH]ccc3c21 (racemic) [Example 344] ; test system: TYK2 (Homo sapiens, UniProt P29597).
329

Values from patent US8461328B2
